pIC50 listing for selected compounds.
- Target Or System: uPAR-expressing HEC-265 human endometrial adenocarcinoma cells (Homo sapiens)
- Sequence (Q03405 23-335): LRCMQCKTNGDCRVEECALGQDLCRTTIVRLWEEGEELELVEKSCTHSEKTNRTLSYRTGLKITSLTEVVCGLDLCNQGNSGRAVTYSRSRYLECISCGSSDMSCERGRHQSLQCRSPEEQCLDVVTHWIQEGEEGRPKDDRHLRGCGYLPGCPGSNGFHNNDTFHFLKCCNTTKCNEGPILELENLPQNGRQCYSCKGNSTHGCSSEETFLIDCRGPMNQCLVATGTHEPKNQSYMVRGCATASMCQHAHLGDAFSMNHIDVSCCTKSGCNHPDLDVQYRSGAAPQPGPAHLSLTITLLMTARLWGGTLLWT
pIC50: −log10 of the molar value. Where a SMILES comes first, the peptide text is derived from it. Bridges are numbered along the chain shown (N, C = ends). [ ]: non-standard residue; d: D form. The star is where a group is joined. DOTA = O=C(O)CN1CCN(CC(=O)O)CCN(CC(=O)*)CCN(CC(=O)O)CC1; Cit = NC(=O)NCCC[C@H](N)C(=O)O; Nva = CCC[C@H](N)C(=O)O; Hexanoyl = CCCCCC(=O)*; Pentanoyl = CCCCC(=O)*

# input Answer with pIC50 of CCCCCC(=O)N[C@@H](CO)C(=O)N[C@@H](CC(C)C)C(=O)N[C@H]1CSSC[C@@H](C(N)=O)NC(=O)[C@H](CC(C)C)NC(=O)[C@H]([C@@H](C)CC)NC(=O)[C@H](C)NC(=O)[C@@H]2CCCN2C(=O)[C@H](Cc2ccccc2)NC(=O)[C@H](Cc2ccccc2)NC(=O)[C@H](CCC(N)=O)NC(=O)[C@H](CC(=O)O)NC1=O [UPAR-202] (Hexanoyl-SLCDQFFPAILC-NH2; disulfide 3-12) measured for uPAR-expressing HEC-265 human endometrial adenocarcinoma cells (Homo sapiens).
# output ≥ 8.00

# input Answer with pIC50 of CCCCCC(=O)N[C@H](C(=O)N[C@@H](CC(C)C)C(=O)N[C@H]1CSSC[C@@H](C(N)=O)NC(=O)[C@H](CC(C)C)NC(=O)[C@H]([C@@H](C)CC)NC(=O)[C@H](C)NC(=O)[C@@H]2CCCN2C(=O)[C@H](Cc2ccccc2)NC(=O)[C@H](Cc2ccc(O)cc2)NC(=O)[C@H](CC(C)C)NC(=O)[C@H](CC(=O)O)NC1=O)[C@@H](C)O [UPAR-318] (Hexanoyl-TLCDLYFPAILC-NH2; disulfide 3-12) measured for uPAR-expressing HEC-265 human endometrial adenocarcinoma cells (Homo sapiens).
# output ≥ 8.00

# input Answer with pIC50 of CCCCC(=O)N[C@H]1CSSC[C@@H](C(N)=O)NC(=O)[C@H](CCC)NC(=O)[C@H]([C@@H](C)CC)NC(=O)[C@@H]2CCCN2C(=O)[C@@H]2CCCN2C(=O)[C@H](Cc2ccccc2)NC(=O)[C@H](Cc2ccc(O)cc2)NC(=O)[C@H](CCCCNC(=O)CN2CCN(CC(=O)O)CCN(CC(=O)O)CCN(CC(=O)O)CC2)NC(=O)[C@H](CCCNC(N)=O)NC1=O [UPAR-473] (Pentanoyl-C[Cit]K(DOTA)YFPPI[Nva]C-NH2; disulfide 1-10) measured for uPAR-expressing HEC-265 human endometrial adenocarcinoma cells (Homo sapiens).
# output ≥ 8.00

FYI, the data here is from patent EP4610269A1.
